# run.description: Displacement of [3H]2BFI from Imidazoline receptor 2 in Sprague-Dawley rat brain P2 membrans after […] by liquid scintillation counting
# if measured Ki < 0.2 µM: yes (1)  # else: no (0)

> print(dat)
                         structure.notation  class.name
 1            Br.COc1cccc2ccn(CC3=NCCN3)c12      no (0)
 2             Cl.Fc1ccc2c(ccn2CC2=NCCN2)c1     yes (1)
 3            Brc1cccc2ccn(CC3=NCCN3)c12.Cl      no (0)
 4  Br.c1ccc(COc2cccc3ccn(CC4=NCCN4)c23)cc1      no (0)
 5               Cl.Fc1cccc2c1ccn2CC1=NCCN1      no (0)
 6            Cl.Clc1ccc2ccn(CC3=NCCN3)c2c1     yes (1)
 7            CCc1cccc2ccn(CC3=NCCN3)c12.Cl      no (0)
 8              Brc1cccc2c1ccn2CC1=NCCN1.Cl     yes (1)
 9            Cl.Clc1cccc2ccn(CC3=NCCN3)c12     yes (1)
10             Br.Cc1cccc2ccn(CC3=NCCN3)c12      no (0)
11            Brc1ccc2c(ccn2CC2=NCCN2)c1.Cl     yes (1)
